molecular target: NEK2 (human) (UniProt P51955); assay: radiometric filter-binding kinase assay, Kinase HotSpot; settings: compound 0.5 µM; ATP 10 µM
Sequence (P51955 whole entry, looked up): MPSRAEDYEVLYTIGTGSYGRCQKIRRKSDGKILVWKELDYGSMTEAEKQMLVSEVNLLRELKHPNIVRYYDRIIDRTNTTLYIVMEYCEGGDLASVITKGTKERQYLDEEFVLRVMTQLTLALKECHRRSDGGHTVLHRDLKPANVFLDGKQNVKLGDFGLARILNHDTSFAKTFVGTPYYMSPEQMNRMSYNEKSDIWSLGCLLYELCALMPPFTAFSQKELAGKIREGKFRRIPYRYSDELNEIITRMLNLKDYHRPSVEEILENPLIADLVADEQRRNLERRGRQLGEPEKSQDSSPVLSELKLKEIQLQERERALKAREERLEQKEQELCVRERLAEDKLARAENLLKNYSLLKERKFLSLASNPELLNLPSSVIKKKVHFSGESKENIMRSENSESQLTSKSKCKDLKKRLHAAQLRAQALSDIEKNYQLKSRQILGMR
VALUE_KIND: residual activity (%)
# value in %; strip the unit string

Examples with their reported residual activity follow.
>  <SMI>
COc1cc(Nc2c(C#N)cnc3cc(OCCCN4CCN(C)CC4)c(OC)cc23)c(Cl)cc1Cl

>  <residual activity / %>
8.56

$$$$
>  <SMI>
c1ccc2c(-c3ccncc3)c[nH]c2c1

>  <residual activity / %>
106

$$$$
>  <SMI>
CN(C)CCCn1cc(C2=C(c3c[nH]c4ccccc34)C(=O)NC2=O)c2ccccc21

>  <residual activity / %>
96.2

$$$$

# input Answer briefly: residual activity recorded on NEK2 (human) (UniProt P51955) for COc1cc2ncnc(Nc3ccc(Oc4ccccc4)cc3)c2cc1OC
# output 111

# input Answer briefly: residual activity recorded on NEK2 (human) (UniProt P51955) for COc1ccc(Cl)cc1NC(=O)Nc1cc(C)nc2ccccc12
# output 106

# input Answer briefly: residual activity recorded on NEK2 (human) (UniProt P51955) for O=C1Nc2ccc(Br)cc2/C1=C\c1cc2c([nH]1)CCCC2
# output 87.9

# input Answer briefly: residual activity recorded on NEK2 (human) (UniProt P51955) for O=C(c1cc2cc(O)ccc2[nH]1)c1cc2cc(O)ccc2[nH]1
# output 101

# input Answer briefly: residual activity recorded on NEK2 (human) (UniProt P51955) for O=C1NC(=O)c2c1c1c3ccccc3[nH]c1n1cncc21
# output 87.5

----------
biological target: UniProt P37023; assay: radiometric filter-binding kinase assay, Kinase HotSpot; details: compound 0.5 µM; ATP 10 µM
Sequence (P37023 whole entry, looked up): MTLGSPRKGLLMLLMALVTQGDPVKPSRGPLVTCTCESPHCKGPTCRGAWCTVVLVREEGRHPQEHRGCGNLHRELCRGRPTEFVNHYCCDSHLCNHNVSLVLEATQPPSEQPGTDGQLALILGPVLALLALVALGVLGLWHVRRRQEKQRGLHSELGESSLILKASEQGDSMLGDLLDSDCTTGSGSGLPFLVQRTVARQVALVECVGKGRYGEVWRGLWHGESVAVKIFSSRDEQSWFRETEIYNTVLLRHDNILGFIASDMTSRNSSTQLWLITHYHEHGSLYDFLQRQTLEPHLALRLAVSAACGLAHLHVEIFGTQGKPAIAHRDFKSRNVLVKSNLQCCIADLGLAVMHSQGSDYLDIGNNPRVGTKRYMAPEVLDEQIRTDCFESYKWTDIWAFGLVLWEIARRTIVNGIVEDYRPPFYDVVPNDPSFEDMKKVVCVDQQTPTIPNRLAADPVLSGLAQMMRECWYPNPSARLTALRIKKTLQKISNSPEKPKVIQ
VALUE_KIND: residual activity (%)
# value in %; strip the unit string

Examples with their reported residual activity follow.
>  <SMI>
Cc1cccc(-c2nc(C(C)(C)C)[nH]c2-c2ccc3c(c2)OCO3)n1

>  <residual activity (%)>
127

$$$$
>  <SMI>
COc1ccc2c(c1)/C(=C/c1cnc[nH]1)C(O)=N2

>  <residual activity (%)>
98.7

$$$$
>  <SMI>
C[C@@H]1CCN(C(=O)CC#N)C[C@@H]1N(C)c1ncnc2[nH]ccc12

>  <residual activity (%)>
100

$$$$

# input Return residual activity (reported value) for this compound: CS(=O)(=O)CCNCc1ccc(-c2ccc3ncnc(Nc4ccc(OCc5cccc(F)c5)c(Cl)c4)c3c2)o1
# output 105

# input Return residual activity (reported value) for this compound: CN(C)c1ccc(/C=C2\C(=O)Nc3ccccc32)cc1
# output 104

# input Return residual activity (reported value) for this compound: COc1ccc(S(=O)(=O)N(CCO)c2ccccc2CN(C)C/C=C/c2ccc(Cl)cc2)cc1
# output 98.4

# input Return residual activity (reported value) for this compound: N#C/C(=C\c1ccc(O)c(O)c1)C(=O)NCc1ccccc1
# output 106

# input Return residual activity (reported value) for this compound: COc1ccc2c(c1)c(C1=C(c3c[nH]c4ccccc34)C(=O)NC1=O)cn2CCCN(C)C
# output 87.8

----------
target: FGFR1 (human) (UniProt P11362); assay: radiometric filter-binding kinase assay, Kinase HotSpot; settings: compound 0.5 µM; ATP 10 µM
Sequence (P11362 whole entry, looked up): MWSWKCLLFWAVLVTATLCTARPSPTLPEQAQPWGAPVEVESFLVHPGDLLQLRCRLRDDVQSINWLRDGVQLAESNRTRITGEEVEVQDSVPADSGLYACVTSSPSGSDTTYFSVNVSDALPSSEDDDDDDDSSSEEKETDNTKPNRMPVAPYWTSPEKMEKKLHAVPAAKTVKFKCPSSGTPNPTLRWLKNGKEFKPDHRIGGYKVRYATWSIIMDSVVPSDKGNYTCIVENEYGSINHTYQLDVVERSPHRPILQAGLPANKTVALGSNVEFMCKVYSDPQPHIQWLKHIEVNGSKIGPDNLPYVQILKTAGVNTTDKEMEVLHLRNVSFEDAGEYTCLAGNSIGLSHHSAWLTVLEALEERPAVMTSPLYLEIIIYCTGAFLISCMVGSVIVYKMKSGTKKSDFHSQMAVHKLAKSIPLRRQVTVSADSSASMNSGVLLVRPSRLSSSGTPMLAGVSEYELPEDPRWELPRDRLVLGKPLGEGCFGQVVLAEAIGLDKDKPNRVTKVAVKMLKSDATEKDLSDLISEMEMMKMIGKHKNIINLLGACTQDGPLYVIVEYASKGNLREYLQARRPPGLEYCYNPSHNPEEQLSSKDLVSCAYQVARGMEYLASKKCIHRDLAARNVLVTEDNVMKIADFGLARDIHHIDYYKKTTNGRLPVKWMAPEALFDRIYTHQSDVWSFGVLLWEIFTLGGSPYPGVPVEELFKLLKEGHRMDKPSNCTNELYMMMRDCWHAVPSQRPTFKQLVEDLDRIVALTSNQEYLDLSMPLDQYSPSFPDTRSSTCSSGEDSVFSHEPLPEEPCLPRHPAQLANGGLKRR
VALUE_KIND: residual activity (%)
# value in %; strip the unit string

# input Return residual activity (reported value) for this compound: Cc1cccc(-c2nc(C(C)(C)C)[nH]c2-c2ccc3c(c2)OCO3)n1
# output 90.8

# input Return residual activity (reported value) for this compound: CO[C@@H]1[C@H](N(C)C(=O)c2ccccc2)C[C@H]2O[C@]1(C)n1c3ccccc3c3c4c(c5c6ccccc6n2c5c31)C(=O)NC4
# output 36.1

# input Return residual activity (reported value) for this compound: CN(C)S(=O)(=O)c1ccc2c(c1)/C(=C/c1cc3c([nH]1)CCCC3)C(=O)N2
# output 71.4
